TARGET_OR_TEST_SYSTEM: RSK1 (Homo sapiens)
Sequence (Q15418 whole entry): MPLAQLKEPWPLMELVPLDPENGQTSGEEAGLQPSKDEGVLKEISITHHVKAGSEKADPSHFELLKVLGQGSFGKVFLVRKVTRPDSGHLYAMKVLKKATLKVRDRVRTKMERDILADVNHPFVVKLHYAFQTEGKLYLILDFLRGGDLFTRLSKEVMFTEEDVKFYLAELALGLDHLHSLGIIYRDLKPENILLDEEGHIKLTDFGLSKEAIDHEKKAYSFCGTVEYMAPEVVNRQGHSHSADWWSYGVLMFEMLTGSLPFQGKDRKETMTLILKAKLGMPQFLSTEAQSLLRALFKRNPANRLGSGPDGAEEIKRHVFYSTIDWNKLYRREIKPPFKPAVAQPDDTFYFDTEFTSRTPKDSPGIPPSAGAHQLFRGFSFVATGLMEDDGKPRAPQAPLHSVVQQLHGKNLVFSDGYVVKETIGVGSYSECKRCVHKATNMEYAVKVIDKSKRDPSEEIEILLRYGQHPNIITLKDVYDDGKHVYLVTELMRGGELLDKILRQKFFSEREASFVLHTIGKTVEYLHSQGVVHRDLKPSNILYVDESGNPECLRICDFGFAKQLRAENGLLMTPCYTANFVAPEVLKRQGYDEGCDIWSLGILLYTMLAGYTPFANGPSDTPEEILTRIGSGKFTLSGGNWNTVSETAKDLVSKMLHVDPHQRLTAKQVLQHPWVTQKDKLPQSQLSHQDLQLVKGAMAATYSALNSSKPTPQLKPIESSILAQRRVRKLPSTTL
TEST_SUMMARY: Kinase profiling (radiometric filter-binding)
Type: biochemical
TEST_CONTEXT: RSK1, 1 µM inhibitor; read-out: Residual activity, %
Square brackets hold non-standard residues; d marks the D form. Peptide text beside a SMILES is read from it. * marks the point of attachment. X3 = O=C(CCCCCNCc1nc2c(sc3cc(Br)cnc32)c(=O)[nH]1)*
I'd be grateful if you could share measured remaining activity at 1 µM for these entries.
Could you give me the number in %? Just the number is fine.

Item N=C(N)NCCC[C@@H](NC(=O)CCCCCNCc1nc2c(sc3cc(Br)cnc32)c(=O)[nH]1)C(=O)N[C@H](CCCNC(=N)N)C(=O)N[C@H](CCCNC(=N)N)C(=O)N[C@H](CCCNC(=N)N)C(=O)N[C@H](CCCNC(=N)N)C(=O)N[C@H](CCCNC(=N)N)C(=O)N[C@H](CCCCN)C(N)=O [ARC-3126, BPTP-Ahx-(D-Arg)6-D-Lys-NH2] (X3-[dR][dR][dR][dR][dR][dR][dK]-NH2) has what recorded remaining activity at 1 µM?
82

Next entry: `N=C(N)NCCC[C@@H](NC(=O)CNC(=O)[C@@H](CCCNC(=N)N)NC(=O)[C@@H](CCCNC(=N)N)NC(=O)CCCCCCCNCc1nc2c(sc3cc(Br)cnc32)c(=O)[nH]1)C(=O)N[C@H](CCCCN)C(N)=O`
95

// query: `N=C(N)NCCC[C@@H](NC(=O)CNC(=O)[C@@H](CCCNC(=N)N)NC(=O)[C@@H](CCCNC(=N)N)NC(=O)Cn1cc(CNCc2nc3c(sc4ccc(Br)cc43)c(=O)[nH]2)nn1)C(=O)N[C@H](CCCCN)C(N)=O`
74

* * *

TARGET_OR_TEST_SYSTEM: RSK2 (Homo sapiens, UniProt P51812)
Sequence (P51812 whole entry): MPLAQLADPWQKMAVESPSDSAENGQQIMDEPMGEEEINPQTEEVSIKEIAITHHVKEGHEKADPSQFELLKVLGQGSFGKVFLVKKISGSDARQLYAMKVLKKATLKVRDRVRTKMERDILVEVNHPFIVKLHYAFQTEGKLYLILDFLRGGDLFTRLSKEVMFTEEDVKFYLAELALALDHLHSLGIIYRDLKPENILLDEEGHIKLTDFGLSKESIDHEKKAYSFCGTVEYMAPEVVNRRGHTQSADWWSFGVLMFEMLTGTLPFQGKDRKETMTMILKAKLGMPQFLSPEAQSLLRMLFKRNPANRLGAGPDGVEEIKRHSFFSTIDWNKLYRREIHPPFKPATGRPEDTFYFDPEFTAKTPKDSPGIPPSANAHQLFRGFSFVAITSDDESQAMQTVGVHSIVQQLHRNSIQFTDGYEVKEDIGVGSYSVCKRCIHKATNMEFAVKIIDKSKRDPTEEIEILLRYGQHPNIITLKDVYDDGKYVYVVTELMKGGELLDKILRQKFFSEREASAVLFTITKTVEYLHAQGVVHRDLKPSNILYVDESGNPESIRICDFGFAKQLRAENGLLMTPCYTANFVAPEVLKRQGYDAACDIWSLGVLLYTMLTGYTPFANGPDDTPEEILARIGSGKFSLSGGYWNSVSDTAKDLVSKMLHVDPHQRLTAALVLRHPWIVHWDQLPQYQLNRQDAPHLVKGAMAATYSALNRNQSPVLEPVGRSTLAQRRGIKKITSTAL
TEST_SUMMARY: Kinase profiling (radiometric filter-binding)
Assay type: biochemical
TEST_CONTEXT: RSK2, 1 µM inhibitor; read-out: Residual activity, %
Square brackets hold non-standard residues; d marks the D form. Peptide text beside a SMILES is read from it. * marks the point of attachment. X3 = O=C(CCCCCNCc1nc2c(sc3cc(Br)cnc32)c(=O)[nH]1)*
EXPERIMENTAL_ENDPOINT: remaining activity at 1 µM (%)
Just the number please, in %, no unit attached.

Which remaining activity at 1 µM reading was recorded for the molecule `N=C(N)NCCC[C@@H](NC(=O)CNC(=O)[C@@H](CCCNC(=N)N)NC(=O)[C@@H](CCCNC(=N)N)NC(=O)CCCCCCCNCc1nc2c(sc3ccc(Br)cc32)c(=O)[nH]1)C(=O)N[C@H](CCCCN)C(N)=O` ?
92

Another molecule to check: N=C(N)NCCC[C@@H](NC(=O)CCCCCNCc1nc2c(sc3cc(Br)cnc32)c(=O)[nH]1)C(=O)N[C@H](CCCNC(=N)N)C(=O)N[C@H](CCCNC(=N)N)C(=O)N[C@H](CCCNC(=N)N)C(=O)N[C@H](CCCNC(=N)N)C(=O)N[C@H](CCCNC(=N)N)C(=O)N[C@H](CCCCN)C(N)=O [ARC-3126, BPTP-Ahx-(D-Arg)6-D-Lys-NH2] (X3-[dR][dR][dR][dR][dR][dR][dK]-NH2)
86

What do we get for `N=C(N)NCCC[C@@H](NC(=O)CNC(=O)[C@@H](CCCNC(=N)N)NC(=O)[C@@H](CCCNC(=N)N)NC(=O)Cn1cc(CNCc2nc3c(sc4ccc(Br)cc43)c(=O)[nH]2)nn1)C(=O)N[C@H](CCCCN)C(N)=O` ?
106

Queued: `N=C(N)NCCC[C@@H](NC(=O)CNC(=O)[C@@H](CCCNC(=N)N)NC(=O)[C@@H](CCCNC(=N)N)NC(=O)CCCCCCCNCc1nc2c(sc3cc(Br)cnc32)c(=O)[nH]1)C(=O)N[C@H](CCCCN)C(N)=O`
109

Let us now turn to `N=C(N)NCCC[C@@H](NC(=O)CCCCCNC(=O)Cn1cnc2c(I)c(I)c(I)c(I)c21)C(=O)N[C@H](CCCNC(=N)N)C(=O)N[C@H](CCCNC(=N)N)C(=O)N[C@H](CCCNC(=N)N)C(=O)N[C@H](CCCNC(=N)N)C(=O)N[C@H](CCCNC(=N)N)C(=O)N[C@H](CCCCN)C(N)=O`
17
